Just for reference, patent US20210102195A1 is where these values come from.

Target: T1, CRTH2R (UniProt Q9Y5Y4 1-395, limits assumed)
T1 sequence (looked up): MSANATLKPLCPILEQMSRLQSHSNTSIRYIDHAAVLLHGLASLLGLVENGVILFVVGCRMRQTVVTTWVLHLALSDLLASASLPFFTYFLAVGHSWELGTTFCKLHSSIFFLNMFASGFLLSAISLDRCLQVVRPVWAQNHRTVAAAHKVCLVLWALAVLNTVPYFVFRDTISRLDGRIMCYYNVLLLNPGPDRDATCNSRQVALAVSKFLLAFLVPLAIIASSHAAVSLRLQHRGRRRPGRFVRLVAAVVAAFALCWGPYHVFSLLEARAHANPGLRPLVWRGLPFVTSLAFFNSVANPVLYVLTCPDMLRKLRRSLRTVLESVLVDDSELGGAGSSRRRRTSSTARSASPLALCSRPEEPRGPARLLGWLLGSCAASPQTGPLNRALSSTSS
Experiment: cell-based or functional assay
Outcome Measure: IC50 fold difference of the PGD2 dose response (cAMP) with 100 nM IgG

Binder | Observed Result
CRTH2-42 (antibody) VH: QVQLVESGGGVVQPGRSLRLSCAASGFAFSSYAMHWVRQAPGKGLEWVAVISYEGSNEYYADSVKGRFTISRDNSKNTLYLQMNSLRAEDTAVYYCARDLRELECEEWTVLQYGKFHMRWAESGEGSLSRGPCVDPRGVAGSFDVWGQGTLVTVSS VL: QSALTQPASVSGSPGQSITISCTGTSSDVGGYRYVSWYQQHPGKAPKLMIYNVNYRPSGVSNRFSGSKSGNTASLTISGLQAEDEADYYCSSYRSSSTLGVFGGGTKLTVL | > 2 fold
